assay: Pharmacokinetic (toxicokinetic) study, plasma; format: in vivo, Sprague Dawley rats; conditions: female, Sprague Dawley, rat, plasma, iv, 80 mg/kg, Day 1, 80 mg/kg IV, Female, plasma
Metric: AUC(0-t) (µg·h/mL)

[
  {
    "Smiles notation": "CC(=O)N[C@H]1[C@H](Oc2ccc([N+](=O)[O-])cc2)O[C@H](CO)[C@@H](O)[C@@H]1O",
    "Number": 101
  }
]

----------
Experiment: Pharmacokinetic (toxicokinetic) study, plasma
Assay type: in vivo, Sprague Dawley rats
Settings: male, Sprague Dawley, rat, plasma, iv, 40 mg/kg, Day 3, 40 mg/kg IV, Male, plasma; read-out: Vd
Protocol: For the PK study of AVR-48 in rats, a formulation consisting of 10% DMSO, 20% tetraglycol, 20% PEG 400, and 50% sterile water was developed. Each preparation was made on the same day of dose administration. […] Briefly, the appropriate volume of DMSO (10% of the final volume) was measured into a container followed by gradual addition of PEG 400 (20% of the final volume) and sterile water (50% of the final volume) to make up the volume and mixed thoroughly till completely dissolved. […]

[
  {
    "Smiles notation": "CC(=O)N[C@H]1[C@H](Oc2ccc([N+](=O)[O-])cc2)O[C@H](CO)[C@@H](O)[C@@H]1O",
    "Vd [L/kg]": 2.71
  }
]

----------
assay: Toxicology study of AVR-48, IV dose escalation and repeat dose phases; type: in vivo, Sprague Dawley rats; conditions: both sexes, Sprague Dawley, rat, in vivo; IV, two daily doses for three consecutive days, male and female rats; read-out: no observable adverse effect level (NOAEL)

[
  {
    "Smiles notation": "CC(=O)N[C@H]1[C@H](Oc2ccc([N+](=O)[O-])cc2)O[C@H](CO)[C@@H](O)[C@@H]1O",
    "Result unit": "mg/kg/day",
    "NOAEL at 3 days": 80
  }
]

----------
test: Toxicology study of AVR-48, IV dose escalation and repeat dose phases; type: in vivo, Sprague Dawley rats; details: both sexes, Sprague Dawley, rat, in vivo; IV, two daily doses for three consecutive days, male and female rats

[
  {
    "Smiles notation": "CC(=O)N[C@H]1[C@H](Oc2ccc([N+](=O)[O-])cc2)O[C@H](CO)[C@@H](O)[C@@H]1O",
    "MTD at 3 days, mg/kg/day": 80
  }
]

----------
test: Pharmacokinetic (toxicokinetic) study, plasma; assay type: in vivo, Sprague Dawley rats; conditions: female, Sprague Dawley, rat, plasma, iv, 40 mg/kg, Day 1, 40 mg/kg IV, Female, plasma; read-out: T1/2 (converted)

[
  {
    "Smiles notation": "CC(=O)N[C@H]1[C@H](Oc2ccc([N+](=O)[O-])cc2)O[C@H](CO)[C@@H](O)[C@@H]1O",
    "half-life (h)": 1.4
  }
]

----------
assay: Pharmacokinetic (toxicokinetic) study, plasma; format: in vivo, Sprague Dawley rats; details: female, Sprague Dawley, rat, plasma, iv, 80 mg/kg, Day 1, 80 mg/kg IV, Female, plasma; read-out: Cl (converted)

[
  {
    "Smiles notation": "CC(=O)N[C@H]1[C@H](Oc2ccc([N+](=O)[O-])cc2)O[C@H](CO)[C@@H](O)[C@@H]1O",
    "clearance": "13.4 mL/min/kg"
  }
]
